- Test system: MS2 coat protein
- assay procedure: apparent KD of MS2 coat protein; higher = weaker reporter binding
- experimental setup: Eterna round: R107; input ligand: theophylline 20 uM
# thresholds on apparent KD of MS2 coat protein define classes: bin 1 (below 20 nM), bin 2 (20 nM to below 30 nM), bin 3 (30 nM or more)

[[record]]
polymer_sequence = "AUUCAUAAUUGGGUAAAUGGAUAGAGUGAUACCAGUCAUAUACAUGACCCUUGGCAGCACAAGGACAUGAGGAUCACCCAUGUCA [Same State Theophylline A GF22]"
class_name = "bin 2"

[[record]]
polymer_sequence = "ACACACAUGAGGAUCACCCAUGUAAUAGAUACCAGUGACGCGGUGCACCCUUGGCAGCUGCUGCUGAGUGAUGGUUCCCUCGGAA [Exclusion Theophylline A GF7]"
class_name = "bin 2"

[[record]]
polymer_sequence = "AAGACAUGAGGAUCACCCAUGUCGACAAAACGAGGACCGGUACGGCCGCCACUCGAAAGCAAAUGAGCGCAUGCGGCCUGGGUAU [Exclusion Tryp A GF2]"
class_name = "bin 1"

[[record]]
polymer_sequence = "CCUAUGCAGUCGGCCGCCACUGAACAUGAGGAUCACCCAUGUAACGGAAACGAAGAUCCUGAAAUCAGGACCGGGACUGUAUAGG [Ex Tryptophan B 3]"
class_name = "bin 3"

[[record]]
polymer_sequence = "UAACAUGAGGAUCACCCAUGUUUGAAGAAACGAGGACCGGUACGGCCGCCACUCGACGAGUGGAUGAAUAGUGGGCUUGUGUGCU [Same State Trp A GF10]"
class_name = "bin 1"

[[record]]
polymer_sequence = "UUUUUUUUUUACAUGAGGAUCACCCAUGUUCGAGGACCGGUACGGCCGCCACUCGUUUUUGUUGUGGUAGGGUUAGGGUUAGGGU [Turkey Lurky]"
class_name = "bin 3"

[[record]]
polymer_sequence = "GGAUAGGACACGGCCGCCACUAUCUAGGAUACUAGCAACAUUUGGGUACUUGAGGAUCACCCAAGUAGGACCGGGUGUCCUAUCG"
class_name = "bin 3"

[[record]]
polymer_sequence = "GUCCUCGUGUCCGGUUUAGCGCAAAGCGCACGAGGACCGGUACGGCCGCCACUCGAAACAUGAGGAUCACCCAUGUGAAGAAUAA [Design 1]"
class_name = "bin 2"

[[record]]
polymer_sequence = "UGUAUGUGAUCUGAUACCAGCCUCAUAGCUUGAGGAUCACCCAAGUGGAGCGGAAACGCUGGCCCUUGGCAGCAGAUCGCAUACU [TheoBS 1 #AlternativeMS2]"
class_name = "bin 3"

[[record]]
polymer_sequence = "ACGUCGCAUAGGAAAACUAUGUGACGAAAUCGAGGACCGGUACGGCCGCCACUCGUCCUCAACAUGAGGAUCACCCAUGUAAUAA [Mat - Exclusion - Trytophan A - D7]"
class_name = "bin 2"

[[record]]
polymer_sequence = "AAAACAUGAGGAUCACCCAUGUGGUGAGAAGGAGCGUCGGAAAUGACAGGUAGGUCGCUUAUCCGUAAGUAUUAGUGUUAGUACA [SSArg A #1]"
class_name = "bin 3"

[[record]]
polymer_sequence = "AAACAUUGCUCAGAUACCAGACAUGAGGAUCACCCAUGUACCAAGGUAAAGAAAUAACGUGUCCCUUGGCAGCUGAGCAAUGAAA [MAT - Exclusion Theophlline B - Mod of Eli - D10]"
class_name = "bin 1"

[[record]]
polymer_sequence = "UCGUGUAUAUCGGAUACCAGUGAGAACGAUACAUGAGGAUCACCCAUGUGAGUUGAUGUACACCCUUGGCAGCUGUAUAUAUCUA [gghullin]"
class_name = "bin 2"

[[record]]
polymer_sequence = "ACAUGAGGAUCACCCAUGUGAAGGCACGAUACCAGCUGAUCCCGUGGCCCUUGGCAGCGUCACGUUUGGUCCCGCGGAUGAGACG [crcmullin]"
class_name = "bin 2"


====

- System: MS2 coat protein
- assay procedure: apparent KD of MS2 coat protein; higher = weaker reporter binding
- experimental setup: Eterna round: R107; input ligand: arginine 13.2 mM
metric: apparent KD of MS2 coat protein (nM)

[[record]]
polymer_sequence = "AAAAGAGGUGGAAGGAGCGGGAGACAUGAGGAUCACCCAUGUGAUAUGACAAGAGGAUCAGCCCAGGUAGGUCGCCAUGUCGAAA [pbbbmullin]"
study_target = "MS2 coat protein"
scale_unit = "nM"
reading = 17.9

[[record]]
polymer_sequence = "UGAUCCUGCAGGGAUACCAGCGCCGCUAGAUAACUAUGCACAUGAGGAUCACCCAUGUAACGCCCUUGGCAGCCCAACUAAAGGG [Same State Theophylline B GF21]"
study_target = "MS2 coat protein"
scale_unit = "nM"
reading = 28.9

[[record]]
polymer_sequence = "CCUCAUGUGUAUCACCACAUGAGUGGUGAUACCAGCAUCGAAAGAUGCCCUUGGCAGCACCAACAUGAGGAUCACCCAUGUAAUA [(M)'-(T)'-(M)''-(T1)-(T2)-(M1)-(M2)_Design2]"
study_target = "MS2 coat protein"
scale_unit = "nM"
reading = 60.3

[[record]]
polymer_sequence = "AUAUGAUCAUAGGAUACCAGAAAUGGUAUUCCUUUAUUUCUUACAUGAGGAUCACCCAUGUUCCCUUGGCAGCUUAUGAUCAUAU [ETHB #4]"
study_target = "MS2 coat protein"
scale_unit = "nM"
reading = 79.3

[[record]]
polymer_sequence = "GGUUGGUCGCAGGAUACCAGUCCACCCGUGAUACUGCUAAACAUGAGGAUCACCCAUGUCGACCCUUGGCAGCCUGUCCAUGCGU [theeternabot_exclusion_MS2_Theo_B_45]"
study_target = "MS2 coat protein"
scale_unit = "nM"
reading = 18.8

[[record]]
polymer_sequence = "AAGACAUGAGGAUCACCCAUGUCGACAAAACGAGGACCGGUACGGCCGCCACUCGAAAGCAAAUGAGCGCAUGCGGCCUGGGUAU [Exclusion Tryp A GF2]"
study_target = "MS2 coat protein"
scale_unit = "nM"
reading = 10.1

[[record]]
polymer_sequence = "AUAUAUACAUGAGGAUCACCCAUGUUAUUUCGAGGACCGGUACGGCCGCCACUCGAUAGAGUAGAAGUAUUUUGGGAUAGUUGAU [JR_SSTryptoA_Sub015]"
study_target = "MS2 coat protein"
scale_unit = "nM"
reading = 19.7

[[record]]
polymer_sequence = "GGGCGCUAUCCCGCGAGGGAUAGCGUUCGUCGAGGACCGGUACGGCCGCCACUCGAACGAGUGGUGACAUGAGGAUCACCCAUGU [Oaa]"
study_target = "MS2 coat protein"
scale_unit = "nM"
reading = 39


====

# key: entry, value: apparent KD of MS2 coat protein
- Tested on: MS2 coat protein
- assay procedure: apparent KD of MS2 coat protein; designed switch direction (-1 OFF switch, 1 ON switch): -1; higher = weaker reporter binding
- experimental setup: input ligand: FMN 200 uM
metric: apparent KD of MS2 coat protein

[[record]]
polymer_sequence = "AAAUUCAGAGGAUAUGCGCAUAGAUAAGACUUUUUUUUUUAACAUGAGGAUCACCCAUGUAGAAGGCUGUAACA [Ex2 #50] (Eterna round: R97, puzzle: Exclusion 2)"
reading = "25.4 nM"

[[record]]
polymer_sequence = "AGUUGGCGAGGAUAUACAUGAGGAUCACCCAUGUGAGGGAUACUAGUGAGGUCGAUUAGUAGAAGGCGCUGACA [Mat X3R4 m9] (Eterna round: R97, puzzle: Exclusion 3)"
reading = "839 nM"

[[record]]
polymer_sequence = "AAAUAAAGCCUAGGAUAUCCGGACGAUAACCCAGGAGAAGGAGGAUGUCGAAGAAGACAUGAGGAUCACCCAUGUGCGUCCUCU [Ancegege] (Eterna round: R96, puzzle: Exclusion NG 1)"
reading = "10.3 nM"

[[record]]
polymer_sequence = "UUGUUAUAUGAAGGAUAUACUUAACAUGAGGAUCACCCAUGUGGUGUUGUGAGUGAGUGAGUUUAGUAGAAGGUCAAGUAUUUU [JMF's solution 52] (Eterna round: R96, puzzle: Exclusion NG 2)"
reading = "509 nM"

[[record]]
polymer_sequence = "CUGCUCCGUGUAGGAUAUGCGCGCAACCAACGCGCAGAAGGACAUGAGGAUCACCCAUGUAUGUUAUUAUCACGUGAGGCGCAA [Design 32] (Eterna round: R96, puzzle: Exclusion NG 1)"
reading = "25.7 nM"

[[record]]
polymer_sequence = "AAGAAACAUGAGGAUCACCCAUGUGAGGAUAUGAACCGCCCGGCGUAAGCAAAAUAAAUCAGAAGGCACAAAGG [salish99_ex1_r4_006] (Eterna round: R97, puzzle: Exclusion 1)"
reading = "38.3 nM"

[[record]]
polymer_sequence = "ACAUGUCAUUGAGGAUAUCGCACACAUGAGGAUCACCCAUGUAAACGGAUGCUCAUUAGUGGGUUCGAGAAGGCGAUGUACAUU [Ex NG2 #99] (Eterna round: R96, puzzle: Exclusion NG 2)"
reading = "64.7 nM"

[[record]]
polymer_sequence = "GCCAUGUAAGGAUAUAACCGUCUUCAUGAACAAUGAGGAUGUUAGAAGGUACAUGAGGAUCACCCAUGUCCUUC [Eternabot (Original) Solution 6] (Eterna round: R97, puzzle: Exclusion 4)"
reading = "15.7 nM"

[[record]]
polymer_sequence = "CGCUGUUGAGGAUAUGGGCGUGGUUACAUGAGGAUCACCCAUGUGGUGUCGCGCGUGGGUCCAGAAGGCGGCGGUG [-31.8, -28.5 kcal, 16% A] (Eterna round: R97, puzzle: Exclusion 5)"
reading = "33.5 nM"

[[record]]
polymer_sequence = "UUCCUCACUUCUUUGUCUCACAUGAGGAUCACCCAUGUAAUAUAGGAUAUGCUUAGUAUUUAUAUGCAGAAGGAUAUUAGUAUU [JR_ExcNG3_Sub084] (Eterna round: R96, puzzle: Exclusion NG 3)"
reading = "157 nM"

[[record]]
polymer_sequence = "AUGCUCCGUGUAGGAUAUCGCCGUACUACUCGGCGAGAAGGACAUGAGGAUCACCCAUGUAUGUUAUUAUCACGUGUGGCGCGC [Design 49] (Eterna round: R96, puzzle: Exclusion NG 1)"
reading = "45.7 nM"

[[record]]
polymer_sequence = "ACCUCACAUGAGGAUCACCCAUGUCAGGAUAUCUUUUAUUACAGCAAUCCUGUCGCUGAGAGAAGGGACAUUAA [EX1 #25] (Eterna round: R97, puzzle: Exclusion 1)"
reading = "33.8 nM"

[[record]]
polymer_sequence = "ACGCGAGUAGGAGGAUAUUCUGAGCGCGGGCCAGAAGAAGGCCUAGAUCGUGAACAUGAGGAUCACCCAUGUGGGAUGAUCUAA [Vevexeaus] (Eterna round: R96, puzzle: Exclusion NG 1)"
reading = "180 nM"

[[record]]
polymer_sequence = "CUUCUCAAAGGAUAUCACGGUAAUAACAUGAGGAUCACCCAUGUGCAAUUCGUGUCCCUGUGAGAAGGUUGAGAAG [Remaor] (Eterna round: R96, puzzle: Exclusion 5)"
reading = "19.5 nM"

